Data credit: patent US20260035376A1

- system: Avi-KRAS WT (1-169) GppNHp/RAF1 RBD-3×FLAG (52-151) (Homo sapiens, UniProt P01116)
- Construct: 50 nM Avi-KRAS WT (1-169) GppNHp/RAF1 RBD-3×FLAG (52-151)
- Sequence (P01116 1-169 isoform P01116-2 limits assumed): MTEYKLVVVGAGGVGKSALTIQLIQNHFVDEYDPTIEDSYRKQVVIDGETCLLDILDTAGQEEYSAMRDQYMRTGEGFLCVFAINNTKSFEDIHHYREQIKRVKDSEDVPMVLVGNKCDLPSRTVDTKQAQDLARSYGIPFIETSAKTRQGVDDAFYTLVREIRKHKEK
- assay.name: Disrupting RAS-effector binding HTRF assay, Raf1 RBD-KRAS WT-GppNHp
- condition.parameters: PPI HTRF, 50 nM Avi-KRAS WT GppNHp, compound titration 30-0.0045 μM; read-out: Raf1 RBD-KRAS WT-GppNHp disruption
- Protocol: A protein:protein interaction (PPI) Homogeneous Time Resolved Fluorescence (HTRF) assay was used to determine the effectiveness of compounds of the present disclosure in disrupting KRAS protein and effector RAF1 binding. […] Plates were analyzed on an Envision plate reader using the following setting: Excitation 320 nm, Bandwidth 75 nM; Emission 615 nm, Bandwidth 85 nM, Gain 100%, Flashes 100, Lag 60 μs. […] Data were plotted and analyzed using Prism 8. […]
Can you tell me IC50 for the items I'm about to list?

Example entries begin here.
molecule="N#Cc1c(N)sc2c(F)ccc(-c3c(C(F)(F)F)cc4c(N5CC6CCC(C5)N6)nc(OCC5CCCO5)nc4c3F)c12 (centres unmarked) [Compound 45]" meas_value="1000 to 10000 nM"
molecule="N#Cc1c(N)sc2c(F)ccc(-c3c(C(F)(F)F)cc4c(N5CC6CCC(C5)N6)nc(OC[C@H]5COCCO5)nc4c3F)c12 [Compound 40]" meas_value="100 to 1000 nM"
molecule="CN1C(=O)CC[C@@H]1COc1nc(N2CC3CCC(C2)N3)c2cc(C(F)(F)F)c(-c3ccc(F)c4sc(N)c(C#N)c34)c(F)c2n1 [Compound 57]" meas_value="1000 to 10000 nM"
molecule="N#Cc1c(N)sc2c(F)ccc(-c3c(C(F)(F)F)cc4c(N5CC6CCC(C5)N6)nc(OCC(CO)CO)nc4c3F)c12 [Compound 30]" meas_value="100 to 1000 nM"
molecule="CN(c1nc(OCC2CCOCC2)nc2c(F)c(-c3ccc(F)c4sc(N)c(C#N)c34)c(C(F)(F)F)cc12)[C@@H]1CCCNC1 [Compound 62]" meas_value="> 10000 nM"
molecule="N#Cc1c(N)sc2c(F)ccc(-c3c(C(F)(F)F)cc4c(N5CC6CCC(C5)N6)nc(OCCO)nc4c3F)c12 [Compound 32]" meas_value="1000 to 10000 nM"

Please give IC50 for each item listed below.
1. CN(C(=O)c1cnn(C)c1)c1nc(N2CC3CCC(C2)N3)c2cc(C(F)(F)F)c(-c3ccc(F)c4sc(N)c(C#N)c34)c(F)c2n1 [Compound 27]
2. N#Cc1c(N)sc2c(F)ccc(-c3c(C(F)(F)F)cc4c(N5CC6CCC(C5)N6)nc(N5CCC5)nc4c3F)c12 [Compound 14]
3. N#Cc1c(N)sc2c(F)ccc(-c3c(C(F)(F)F)cc4c(N5CC6CCC(C5)N6)nc(OC5CC(O)C5)nc4c3F)c12 (centres unmarked) [Compound 12]
4. CN1C[C@H](COc2nc(N3CC4CCC(C3)N4)c3cc(C(F)(F)F)c(-c4ccc(F)c5sc(N)c(C#N)c45)c(F)c3n2)CC1=O [Compound 33]

1000 to 10000 nM
1000 to 10000 nM
1000 to 10000 nM
1000 to 10000 nM

// input: 5 molecules below; output: IC50 for each
1. N#Cc1c(N)sc2c(F)ccc(-c3c(C(F)(F)F)cc4c(N5CC6CCC(C5)N6)nc(OCC5CCS(=O)(=O)CC5)nc4c3F)c12 [Compound 53]
2. Cc1nc(N2C[C@H]3CC[C@@H](C2)N3)c2cc(C(F)(F)F)c(-c3ccc(F)c4sc(N)c(C#N)c34)c(F)c2n1 [Compound 22]
3. N#Cc1c(N)sc2c(F)ccc(-c3c(C(F)(F)F)cc4c(N5CC6CCC(C5)N6)nc(OCCc5cnoc5)nc4c3F)c12 [Compound 65]
4. CN(C)c1nc(N2C[C@H]3CC[C@@H](C2)N3)c2cc(C(F)(F)F)c(-c3ccc(F)c4sc(N)c(C#N)c34)c(F)c2n1 [Compound 10]
5. N#Cc1c(N)sc2c(F)ccc(-c3c(C(F)(F)F)cc4c(N5CC6CCC(C5)N6)nc(OCC5CCCCO5)nc4c3F)c12 (centres unmarked) [Compound 49]

1: 100 to 1000 nM; 2: 1000 to 10000 nM; 3: 1000 to 10000 nM; 4: > 10000 nM; 5: 1000 to 10000 nM
